# MEASURED_ON: T1, human EGFRvIII-hFc protein (human, UniProt P00533 25-645)
# T1 construct: extracellular domain; also called immunogen A; hFc-tagged EGFRvIII protein; not shown: human IgG Fc fragment (hFc) of the pCpC vector
# PROTOCOL_SUMMARY: ELISA, EGFRvIII-hFc coated
QUANTITY_NAME: Maximum OD450 value (OD450)
// return numeric value only (unit: OD450, not printed)

// known answers, use as guide
{"columns": ["BINDER", "Maximum OD450 value (OD450)"],
 "data": [
  ["Humanized antibody h75G7C6-9 (antibody, human IgG1, V domains shown, also called VH-g1/VL-g0) VH: QVQLVQSGAEVKKPGASVKVSCKASGYTFTDYNMDWVRQAPGQGLEWIGDINPNNADTIYNQKFKGRVTLTVDTSTSTVYMELSSLRSEDTAVYYCARGDYDGYYPVYYAMDYWGQGTTVTVSS VL: EIVLTQSPATLSLSPGERATLSCRASSSVSSSYLHWYQQKPGQAPRLLIYSTSNLAAGIPARFSGSGSGTDFTLTISSLEPEDFAVYYCQQYSGYPLTFGGGTKVEIK", 2.83],
  ["Humanized antibody h63A10A7-37 (antibody, human IgG1, V domains shown, also called VH-g6/VL-g3) VH: QVQLVQSGAEVKKPGASVKVSCKASGYTFISFTMHWVKQRPGQGLEWMGYINPNSGYTKYNQKFKDKATMTRDTSTSTVYMELSSLRSEDTAVYYCTRGGGRGFAYWGQGTLVTVSS VL: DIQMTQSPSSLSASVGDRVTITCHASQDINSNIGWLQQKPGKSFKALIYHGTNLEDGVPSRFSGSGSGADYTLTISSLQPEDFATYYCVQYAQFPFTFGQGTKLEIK", 3.6]
]}

Read the next record carefully.
Request: For the binder Humanized antibody h63A10A7-23 (antibody, human IgG1, V domains shown, also called VH-g4/VL-g5) VH: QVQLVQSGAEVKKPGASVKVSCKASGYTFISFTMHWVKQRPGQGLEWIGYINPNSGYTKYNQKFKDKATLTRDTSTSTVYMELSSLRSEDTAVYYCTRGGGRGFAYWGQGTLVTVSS VL: DILMTQSPSSLSASVGDRVTITCHASQDINSNIGWLQQKPGKAPKALIYHGTNLEDGVPSRFSGSGSGADYTLTISSLQPEDFATYYCVQYAQFPFTFGQGTKLEIK , what Maximum OD450 value is on record?
Response: 3.47
